target: human NaPi-IIb (Homo sapiens); construct: expressed in transfected cells; experiment: Inhibitory effect on 33PO4 uptake into human NaPi-IIb-expressing CHO cells; assay type: cell-based; conditions: read-out: IC50
Sequence (O95436 whole entry): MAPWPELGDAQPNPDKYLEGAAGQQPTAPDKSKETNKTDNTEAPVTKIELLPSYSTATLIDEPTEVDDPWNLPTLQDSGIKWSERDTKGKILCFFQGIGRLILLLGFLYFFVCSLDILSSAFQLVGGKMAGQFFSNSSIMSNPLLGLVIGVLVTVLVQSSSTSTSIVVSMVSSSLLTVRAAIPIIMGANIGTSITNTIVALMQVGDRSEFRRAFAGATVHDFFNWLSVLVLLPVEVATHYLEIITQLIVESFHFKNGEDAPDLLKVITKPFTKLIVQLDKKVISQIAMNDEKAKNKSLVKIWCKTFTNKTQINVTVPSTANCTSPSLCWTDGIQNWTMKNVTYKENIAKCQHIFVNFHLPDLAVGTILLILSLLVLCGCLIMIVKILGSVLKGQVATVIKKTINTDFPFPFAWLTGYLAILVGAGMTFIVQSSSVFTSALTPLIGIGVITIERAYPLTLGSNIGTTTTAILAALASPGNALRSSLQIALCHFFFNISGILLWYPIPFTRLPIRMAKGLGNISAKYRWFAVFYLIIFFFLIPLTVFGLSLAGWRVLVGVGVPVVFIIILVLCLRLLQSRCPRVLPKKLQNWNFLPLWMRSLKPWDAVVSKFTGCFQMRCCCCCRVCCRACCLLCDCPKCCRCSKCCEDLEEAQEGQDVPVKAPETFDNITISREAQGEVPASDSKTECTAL
pIC50: −log10 of the molar value.
// pIC50 lookup, one value per entry

- chemical_smiles: "CC(C)(C)[C@H]1C(O)=C(C(=O)Nc2ccc(Cl)cc2-c2ccc(C(F)(F)F)nc2)C(=O)N(Cc2cccc(F)c2F)N1CC(F)(F)F"
  pIC50: 5.09
- chemical_smiles: "C[C@@H]1COC[C@H](C)N1CCOc1ccc(CN2C(=O)C(C(=O)Nc3ccc(C(F)(F)F)cc3-c3cc(C(F)(F)F)ncn3)=C(O)C3(CCC3)N2C)c(F)c1F"
  pIC50: 4.86
- chemical_smiles: "C[C@]12CCCN1N(Cc1ccccc1C#N)C(=O)C(C(=O)Nc1ccc(C(F)(F)F)cc1-c1cc(C(F)(F)F)ncn1)=C2O"
  pIC50: 5.09
- chemical_smiles: "COc1cccc(-c2cc(C(F)(F)F)ccc2NC(=O)C2=C(O)[C@@]3(C)CCCN3N(Cc3ccc(C#CCOCCOCCO)c(F)c3F)C2=O)c1OC"
  pIC50: 4.77
- chemical_smiles: "CCN1[C@@H](C(C)(C)C)C(O)=C(C(=O)Nc2ccc(Cl)cc2-c2ccc(C(F)(F)F)nc2)C(=O)N1Cc1cccc(F)c1F"
  pIC50: 5.11
- chemical_smiles: "COc1cccc(-c2cc(C(F)(F)F)ccc2NC(=O)C2=C(O)[C@@]3(C)CCCN3N(Cc3ccc(C#CCOCCCO)c(F)c3F)C2=O)c1OC"
  pIC50: 4.75
- chemical_smiles: "CN1[C@@H](C(C)(C)C)C(O)=C(C(=O)Nc2ccc(Cl)cc2-c2cc(C(F)(F)F)ncn2)C(=O)N1Cc1cccc(F)c1F"
  pIC50: 4.89
- chemical_smiles: "C[C@]12CCCN1N(Cc1ccccc1Cl)C(=O)C(C(=O)Nc1ccc(C(F)(F)F)cc1-c1cc(C(F)(F)F)ncn1)=C2O"
  pIC50: 5.24
- chemical_smiles: "COC(=O)c1cccc(CN2C(=O)C(C(=O)Nc3ccc(C(F)(F)F)cc3-c3cc(C(F)(F)F)ncn3)=C(O)[C@@]3(C)CCCN23)c1"
  pIC50: 5.04
- chemical_smiles: "CN1[C@@H](C(C)(C)C)C(O)=C(C(=O)Nc2cccc(C(F)(F)F)n2)C(=O)N1Cc1cccc(F)c1F"
  pIC50: 5.14
- chemical_smiles: "C[C@]12CCCN1N(Cc1c(F)cccc1F)C(=O)C(C(=O)Nc1ccc(C(F)(F)F)cc1-c1ccc(C(F)(F)F)nc1)=C2O"
  pIC50: 5.70
- chemical_smiles: "CN1N(Cc2ccc(OCCN3CCOCC3)c(F)c2F)C(=O)C(C(=O)Nc2ccc(C(F)(F)F)cc2-c2cc(C(F)(F)F)ncn2)=C(O)C12CCC2"
  pIC50: 5.02

###

target: human NaPi-IIb (Homo sapiens); construct: expressed in transfected cells; experiment: Inhibitory effect on 33PO4 uptake into human NaPi-IIb-expressing CHO cells; format: cell-based; conditions: read-out: IC50
IC50 under 8 µM gets condition met, anything at or over 8 µM gets condition not met.

- compound: "CN1N(Cc2ccc(OCCN3CCOCC3)c(F)c2F)C(=O)C(C(=O)Nc2ccc(Cl)cc2-c2cc(C(F)(F)F)ncn2)=C(O)C12CCCCC2 [Example 297]"
  assigned_label: "condition not met"
- compound: "CN1N(Cc2ccc(OCCN3CCOCC3(C)C)c(F)c2F)C(=O)C(C(=O)Nc2ccc(C(F)(F)F)cc2-c2cc(C(F)(F)F)ncn2)=C(O)C12CCC2 [Example 341]"
  assigned_label: "condition met"
- compound: "CN1[C@@H](C(C)(C)C)C(O)=C(C(=O)Nc2ccc(C(F)(F)F)cc2-c2ccc(C(F)(F)F)nc2)C(=O)N1Cc1ccc(OCCN2CCOCC2)c(F)c1F [Example 266]"
  assigned_label: "condition not met"
- compound: "CC(C)[C@H]1C(O)=C(C(=O)Nc2ccc(C(F)(F)F)cc2-c2ccc(C(F)(F)F)nc2)C(=O)N(Cc2cccc(F)c2F)N1C [Example 253]"
  assigned_label: "condition met"
- compound: "C[C@]12CCCN1N(Cc1c(F)cc(OCCCCCCOC[C@H](O)CO)cc1F)C(=O)C(C(=O)Nc1ccc(C(F)(F)F)cc1-c1ccc(C(F)(F)F)nc1)=C2O [Example 155]"
  assigned_label: "condition met"
